The reported numbers originate from ChEMBL document CHEMBL1146927.

system: Bacillus subtilis; assay: Zone of Bacillus subtilis inhibition at 30 ug; assay type: functional
measured_parameter: inhibition zone (IZ) (mm)
One number for each entry, in mm.

- compound: "CSC1=CC(=O)C(Br)=C[C@]12C=CNC1=C2C2=NCCc3cn(C)c(c32)C1=O"
  unit_of_measurement: "mm"
  inhibition zone (IZ): 3
- compound: "O=C1C=C(SC(=O)c2ccccc2)[C@@]2(C=CNC3=C2C2=NCCc4cn(C(=O)c5ccccc5)c(c42)C3=O)C=C1Br"
  unit_of_measurement: "mm"
  inhibition zone (IZ): 0
- compound: "CSC1=CC(=O)C(Br)=C[C@]12C=CNC1=C2C2=NCCc3c[nH]c(c32)C1=O"
  unit_of_measurement: "mm"
  inhibition zone (IZ): 3
- compound: "O=C1C=C2S[C@H]3C[C@]2(C=C1Br)C1=C(N3)C(=O)c2[nH]cc3c2C1=NCC3 [(+)-DISCORHABDIN B]"
  unit_of_measurement: "mm"
  inhibition zone (IZ): 6
- compound: "O=C1C(Br)=CC2(C=C1Br)CCNC1=C2C2=NCCc3c[nH]c(c32)C1=O"
  unit_of_measurement: "mm"
  inhibition zone (IZ): 8

Q: Dear colleague, please send me the reported inhibition zone (IZ) for Cn1cc2c3c1C(=O)C1=C(C3=NCC2)C2(C=C(Br)C(=O)C(Br)=C2)CCN1 when you can.
Result: 8
